Values were extracted from patent US20250242064A1.

Measured tissue uptake at 120 h, listed per entry for reference.
Experimental details: in vivo
Parameters: species or system mice
Conditions used: male, NOD.Cg-Rag1tm1Mom Il2rgtm1Wjl/SzJ (NRG), mouse, iv, total radioactivity, Biodistribution: Lungs
Where a SMILES comes first, the peptide text is derived from it. Bridges are numbered along the chain shown (N, C = ends). [ ]: non-standard residue; d: D form. The star is where a group is joined. X3 = O=C(O)CN1CCN(CC(=O)O)CCN(CC(=O)N[C@@H](CS(=O)(=O)O)C(=O)N[C@@H](CCCCNC(=O)CCCc2ccc(Br)cc2)C(=O)*)CCN(CC(=O)O)CC1; X1 = O=C(O)CN1CCN(CC(=O)O)CCN(CC(=O)N[C@@H](CS(=O)(=O)O)C(=O)N[C@@H](CCCCNC(=O)CCCc2ccc(I)cc2)C(=O)*)CCN(CC(=O)O)CC1; 2Nal = N[C@@H](Cc1ccc2ccccc2c1)C(=O)O; Lys(iPr) = CC(C)NCCCC[C@H](N)C(=O)O
Answer by giving the amount and then stating its unit.

| Compound | tissue uptake at 120 h |
| --- | --- |
| CC(C)NCCCC[C@H](NC(=O)[C@H]1CCC(=O)N[C@@H](CCCCNC(=O)[C@H](CCCCNC(=O)CCCc2ccc(I)cc2)NC(=O)[C@H](CS(=O)(=O)O)NC(=O)CN2CCN(CC(=O)O)CCN(CC(=O)O)CCN(CC(=O)O)CC2)C(=O)N[C@@H](Cc2ccc(O)cc2)C(=O)N[C@@H](CCCCNC(C)C)C(=O)N[C@H](CCCNC(=N)N)C(=O)N[C@@H](Cc2ccc3ccccc3c2)C(=O)N[C@H](C)C(=O)N1)C(N)=O [[^177Lu]Lu-BL34L11, metal not drawn] (K(X1)Y[Lys(iPr)][dR][2Nal][dA][dE][Lys(iPr)]-NH2; lactam N-7) | 1.91 %ID/g |

Note: attention shifts to another entry.
Q. Could you tell me which tissue uptake at 120 h is on file for CC(C)NCCCC[C@H](NC(=O)[C@H]1CCC(=O)N[C@@H](CCCCNC(=O)[C@H](CCCCNC(=O)CCCc2ccc(Br)cc2)NC(=O)[C@H](CS(=O)(=O)O)NC(=O)CN2CCN(CC(=O)O)CCN(CC(=O)O)CCN(CC(=O)O)CC2)C(=O)N[C@@H](Cc2ccc(O)cc2)C(=O)N[C@@H](CCCCNC(C)C)C(=O)N[C@H](CCCNC(=N)N)C(=O)N[C@@H](Cc2ccc3ccccc3c2)C(=O)N[C@H](C)C(=O)N1)C(N)=O [[^177Lu]Lu-BL34L20, metal not drawn] (K(X3)Y[Lys(iPr)][dR][2Nal][dA][dE][Lys(iPr)]-NH2; lactam N-7) ?
A. 0.72 %ID/g
